Each item that follows carries a reported pKd.
test-target: T1, recombinant human CEACAM-1/CD66a protein (R&D systems; Cat. No. 2244-CM) (human, UniProt P13688 35-428)
T1 construct: Bought protein; captured on anti-His (His1K) biosensors in the Octet assay, so it carries a His tag; also called HCCM1; recombinant CEACAM-1/CD66a protein
T1 sequence (looked up): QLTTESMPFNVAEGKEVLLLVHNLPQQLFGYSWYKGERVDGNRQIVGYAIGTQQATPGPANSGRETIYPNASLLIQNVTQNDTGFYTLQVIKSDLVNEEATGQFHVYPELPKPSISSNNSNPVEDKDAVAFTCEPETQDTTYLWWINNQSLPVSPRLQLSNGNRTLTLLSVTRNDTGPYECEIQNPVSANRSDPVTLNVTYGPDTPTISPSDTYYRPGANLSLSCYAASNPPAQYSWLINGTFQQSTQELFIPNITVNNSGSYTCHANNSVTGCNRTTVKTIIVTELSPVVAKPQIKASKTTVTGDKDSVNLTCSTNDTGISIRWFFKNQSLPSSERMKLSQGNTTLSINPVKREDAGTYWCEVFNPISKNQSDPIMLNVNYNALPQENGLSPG
method-summary: Octet QKe biolayer interferometry, anti-His (HIS1K) biosensors, antibody 6.25-400 nM
On this scale, pKd is minus log10 of a concentration expressed in M (mol/L).

Past entries and their recorded results:
4R26 (antibody, human IgG4 S228P, lambda, V domains shown, also called C25-derived clone 4R26) VH: EVQLLESGGGLVQPGGSLRLSCAASGFTFSNYAMSWVRQAPGKGLEWVSVISHGGGSIYYADSVKGRLTISRDNSKNTLYLQMNSLRAEDTAVYYCARDPTKGYAPTFDYWGQGTLVTVSS VL: QSVLTQPPSASGTPGQRVTISCSGSSSNIGNNYVSWYQQLPGTAPKLLIYADSKRLSGVPDRFSGSKSGTSASLAISGLRSEDEADYYCGAWDGRLNGYVFGGGTKLTVLG; 8.74
4R9 (antibody, human IgG4 S228P, lambda, V domains shown, also called C25-derived clone 4R9) VH: EVQLLESGGGLVQPGGSLRLSCAASGFTFSNYAMSWVRQAPGKGLEWVSVISHGGGSIYYADSVKGRLTISRDNSKNTLYLQMNSLRAEDTAVYYCARDPTKGYAPTFDYWGQGTLVTVSS VL: QSVLTQPPSASGTPGQRVTISCSGSSSNIGNNYVSWYQQLPGTAPKLLIYADSRRPSGVPDRFSGSKSGTSASLAISGLRSEDEADYYCGAWDLSLNGYVFGGGTKLTVLG; 8.47
4R9_H4-n20 (antibody, human IgG4 S228P, lambda, V domains shown, also called C25-derived clone 4R9_H4-n20) VH: EVQLLESGGGLVQPGGSLRLSCAASGFNFSNYAMSWVRQAPGKGLEWVSVISHGGGSIYYADSVKGRLTISRDNSKNTLYLQMNSLRAEDTAVYYCARDPTKGYAPTFDYWGQGTLVTVSS VL: QSVLTQPPSASGTPGQRVTISCSGSSSNIGNNYVSWYQQLPGTAPKLLIYADSRRPSGVPDRFSGSKSGTSASLAISGLRSEDEADYYCGAWDLSLNGYVFGGGTKLTVLG; 7.41
C25 (antibody, human IgG4 S228P, lambda, V domains shown, Made in ExpiHEK293F cells, protein A purified. huIgG4 is the isotype control and anti-huIgG4 the detection reagent; the isotype is not otherwise stated; also called anti-CEACAM1 antibody C25) VH: EVQLLESGGGLVQPGGSLRLSCAASGFTFSNYAMSWVRQAPGKGLEWVSVISHGGGSIYYADSVKGRLTISRDNSKNTLYLQMNSLRAEDTAVYYCARDPTKGYAPTFDYWGQGTLVTVSS VL: QSVLTQPPSASGTPGQRVTISCSGSSSNIGNNYVSWYQQLPGTAPKLLIYADSKRPSGVPDRFSGSKSGTSASLAISGLRSEDEADYYCGAWDASLNGYVFGGGTKLTVLG; 7.46
4R9_H4-n20HC+4R26LC (antibody, human IgG4 S228P, lambda, V domains shown) VH: EVQLLESGGGLVQPGGSLRLSCAASGFNFSNYAMSWVRQAPGKGLEWVSVISHGGGSIYYADSVKGRLTISRDNSKNTLYLQMNSLRAEDTAVYYCARDPTKGYAPTFDYWGQGTLVTVSS VL: QSVLTQPPSASGTPGQRVTISCSGSSSNIGNNYVSWYQQLPGTAPKLLIYADSKRLSGVPDRFSGSKSGTSASLAISGLRSEDEADYYCGAWDGRLNGYVFGGGTKLTVLG; 7.59

Prompt line: Name the recorded pKd of the binder listed here: 4R9_H2-2 (antibody, human IgG4 S228P, lambda, V domains shown, also called C25-derived clone 4R9_H2-2) VH: EVQLLESGGGLVQPGGSLRLSCAASGFTFSNYAMSWVRQAPGKGLEWVSVISHGGGSIYYADSVKGRLTISRDNSKNTLYLQMNSLRAEDTAVYYCARDPTKGYAPLFDYWGQGTLVTVSS VL: QSVLTQPPSASGTPGQRVTISCSGSSSNIGNNYVSWYQQLPGTAPKLLIYADSRRPSGVPDRFSGSKSGTSASLAISGLRSEDEADYYCGAWDLSLNGYVFGGGTKLTVLG
Response line: 8.45
